system: human mGluR2 receptor (Homo sapiens)
Construct: expressed in transfected cells; host or cells: CHO cells (membrane preparation)
Sequence (Q14416 19-872): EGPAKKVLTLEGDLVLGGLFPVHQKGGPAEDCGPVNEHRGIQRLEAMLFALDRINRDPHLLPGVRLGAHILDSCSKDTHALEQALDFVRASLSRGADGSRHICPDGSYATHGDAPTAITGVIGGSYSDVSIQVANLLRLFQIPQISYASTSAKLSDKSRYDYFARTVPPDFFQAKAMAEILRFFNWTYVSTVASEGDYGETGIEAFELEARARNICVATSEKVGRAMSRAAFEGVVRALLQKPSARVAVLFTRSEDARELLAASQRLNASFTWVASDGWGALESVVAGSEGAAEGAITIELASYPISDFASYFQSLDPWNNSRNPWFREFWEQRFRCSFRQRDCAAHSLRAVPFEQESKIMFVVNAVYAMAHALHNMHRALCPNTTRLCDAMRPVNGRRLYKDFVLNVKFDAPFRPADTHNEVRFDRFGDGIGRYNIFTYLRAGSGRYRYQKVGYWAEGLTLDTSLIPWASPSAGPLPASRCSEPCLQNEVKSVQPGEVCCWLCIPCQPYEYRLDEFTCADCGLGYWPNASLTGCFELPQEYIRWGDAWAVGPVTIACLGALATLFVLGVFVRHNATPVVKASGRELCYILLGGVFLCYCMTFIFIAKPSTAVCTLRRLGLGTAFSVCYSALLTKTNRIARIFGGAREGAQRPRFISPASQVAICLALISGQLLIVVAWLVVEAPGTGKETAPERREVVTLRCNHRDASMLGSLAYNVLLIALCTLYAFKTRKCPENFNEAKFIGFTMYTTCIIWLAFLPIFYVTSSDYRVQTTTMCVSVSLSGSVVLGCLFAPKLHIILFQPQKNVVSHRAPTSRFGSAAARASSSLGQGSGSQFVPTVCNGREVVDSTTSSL
experimental_protocol: [35S]GTPγS binding assay (GTPγS-PAM): positive allosteric modulation in presence of glutamate at EC25, membranes from transfected CHO cells
Type: biochemical
condition_label: in presence of mGluR2 agonist glutamate at predetermined EC25 concentration, averages of duplicate values of 11-concentration response curves, read-out: GTPgS - hR2 PAM pEC50 (converted)
Range-based classes on measured EC50: LOW (below 200 nM), MID (200 nM to below 600 nM), HIGH (600 nM or more)

Hi there! Could you help me figure out the category for Cc1c(-c2ccn(CCC(C)C)c(=O)c2C#N)cnn1-c1ccccc1 [5-027] please? MID

Which band does CC(C)CCn1ccc(-c2ccc(-n3ccnn3)cc2)c(C#N)c1=O [1-236] fall in? HIGH

Categorize the following entry: CC(C)CCn1ccc(-c2ccc(F)cc2)c(C#N)c1=O [1-089] HIGH

Lab note: sort CC(C)CCn1ccc(-c2ccc(CN(C)Cc3ccncc3)cc2)c(C#N)c1=O [1-211] into the matching EC50 band. HIGH

// return the class label for N#Cc1c(N2CCC(N(Cc3cccc(C(F)(F)F)c3)C3CC3)CC2)ccn(Cc2ccc(F)cc2)c1=O [4-060] LOW

Hi, small favor: classify N#Cc1c(N[C@@H]2C[C@H]2c2ccccc2)ccn(CC2CC2)c1=O (racemic) [1-294] by its EC50 when you get a moment. HIGH

Record CC(C)CCn1ccc(N2CCCc3ccccc32)c(C#N)c1=O [5-031] — which class? HIGH

// bin(item) where item = N#Cc1c(N2CCC(N3CCc4ccccc4C3)CC2)ccn(Cc2ccc(OC(F)(F)F)cc2)c1=O [4-051] MID

Looking at CN(Cc1ccccc1)C1CCN(c2ccn(CCOc3ccccc3)c(=O)c2C#N)CC1 [4-064] , which class would you pick? LOW

Class? Entry: CC(C)CCn1ccc(-c2ccc(OCc3ccc(Cl)nc3)cc2)c(C#N)c1=O [1-164] LOW

Categorize the following entry: N#Cc1c(-c2ccc3[nH]ccc3c2)ccn(Cc2ccc(OC(F)(F)F)cc2)c1=O [5-051] MID

Pick a category. Item: COc1ccc(-c2ccn(CC3CCC(C)CC3)c(=O)c2C#N)cc1 (stereo not shown) [1-013] LOW

Tag the class for N#Cc1c(-c2ccc(OC(F)(F)F)cc2)ccn(CC2CCCC2)c1=O [1-007] MID

Textbook exercise: identify the category of the molecule given here, CC(C)CCn1ccc(-c2ccc3c(c2)OCO3)c(C#N)c1=O [1-252] , according to its measured value. HIGH

Where would CCCCn1ccc(N2CCN(Cc3cc(F)cc(C(F)(F)F)c3)CC2)c(C#N)c1=O [2-001] land among the classes by reported EC50? HIGH

Into which bin does this molecule go? CC(C)CCn1ccc(N2CCC(n3ccc4ccccc43)CC2)c(C#N)c1=O [4-035] LOW

Bin? N#Cc1c(N2CCC(N(Cc3cccc(F)c3)C3CC3)CC2)ccn(Cc2ccc(F)cc2)c1=O [4-059] MID

State the band of N#Cc1c(OCc2ccccc2)ccn(Cc2ccc(OC(F)(F)F)cc2)c1=O [1-272] LOW
